FYI, the data here is from PubChem BioAssay (NCI).

Listed next: entries and their corresponding TGI.
Test system: SK-MEL-28 melanoma
Test Details: NCI tumour cell line growth inhibition, 48 h

Past entries and their recorded results:
Molecule	TGI
Cc1sc2c(c1C)C(c1ccc(Cl)cc1)=N[C@@H](CC(=O)Nc1ccc(OCCOCCOCCOCCNc3cccc4c3C(=O)N(C3CCC(=O)NC3=O)C4=O)cc1)c1nnc(C)n1-2 (some centres not stated)	> 100 µM
CC(=O)OC(CCC1(C)OC1COc1ccc(CCNC(=O)C=C(C)C)cc1)C(C)(C)OC(C)=O (configuration not stated)	> 100 µM
C=C1C(O)C2C(=C(C)C13CC3)C(=O)C(C)(C)C2OC (configuration not stated)	> 100 µM
NCCCOc1cc(Cl)ccc1NC(=O)c1cc2ccccc2cc1OCCCN	3.23 µM
CC1CC(Nc2ccc(Br)cc2)N(C(=O)c2ccc(Br)cc2)O1 (configuration not stated)	> 10 µM

Prompt line: Given "Cn1cc(S(=O)(=O)N2CCC3=Cc4c(cnn4-c4ccc(F)cc4)C[C@]3(C(=O)c3cc(C(F)(F)F)ccn3)C2)cn1" , report its TGI on SK-MEL-28 melanoma.
Response line: > 100 µM

Prompt line: Given "CSc1ccc2c(cc1=O)[C@@H](NC(=O)c1cc(O)c(O)c(O)c1)CCc1cc(O)c(O)c(O)c1-2" , report its TGI on SK-MEL-28 melanoma.
Response line: 94.8 µM
